# assay.procedure: Pharmacokinetics in Sprague Dawley rats (plasma and brain concentrations, PK parameters)
# Type: in vivo
# details: Sprague-Dawley, rat, plasma, iv, 3 mg/kg, Sprague Dawley rat, iv 3 mg/kg, plasma, 0.25 h, mean of 3 rats; read-out: Concentration Mean

molecule: O=C1CCC(N2C(=O)c3cccc(NCCOCCOCCNCc4ccc(-n5cc(NC(=O)c6coc(-c7ccnc(NCC8CC8)c7)n6)c(C(F)F)n5)cc4)c3C2=O)C(=O)N1 (stereo not shown)
concentration at 0.25 h [ng/mL]: 428

* * *

# study.system: IRAK4 (Homo sapiens, UniProt Q9NWZ3)
# Sequence (Q9NWZ3 1-460): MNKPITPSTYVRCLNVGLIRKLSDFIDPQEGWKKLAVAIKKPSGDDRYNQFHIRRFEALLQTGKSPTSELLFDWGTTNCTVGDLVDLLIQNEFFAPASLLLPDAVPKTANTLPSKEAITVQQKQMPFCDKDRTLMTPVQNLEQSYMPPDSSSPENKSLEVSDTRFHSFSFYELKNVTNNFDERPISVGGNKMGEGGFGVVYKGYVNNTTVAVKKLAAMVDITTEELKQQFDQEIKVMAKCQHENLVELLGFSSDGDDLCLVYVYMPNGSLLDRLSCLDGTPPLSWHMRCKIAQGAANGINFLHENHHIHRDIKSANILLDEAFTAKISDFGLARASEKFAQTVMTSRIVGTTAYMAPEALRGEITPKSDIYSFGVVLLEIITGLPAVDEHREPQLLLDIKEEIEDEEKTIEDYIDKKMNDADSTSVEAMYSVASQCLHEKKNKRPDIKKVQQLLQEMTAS
# assay.procedure: OCI-LY-10 degradation assay (western blot, % IRAK4 degraded after 4 hours)
# Assay type: cell-based
# Parameters: endogenous in cells; host or cells: OCI-LY10
# details: OCI-LY10 cells, 4 hours, 1 uM compound
endpoint: OCI-LY10 % IRAK4 Degradation (1 uM)

compound: Cn1c(=O)n(C2CCC(=O)NC2=O)c2ccc(CCCOCCOCCNC(=O)c3ccc(-n4cc(NC(=O)c5coc(-c6ccnc(NCC7CC7)c6)n5)c(C(F)F)n4)cc3)cc21 (centres unmarked) [I-252]
test.result: A (>50% degradation)
//
compound: CN(CCOCCCc1cccc2c1C(=O)N(C1CCC(=O)NC1=O)C2=O)C(=O)c1ccc(-n2cc(NC(=O)c3coc(-c4ccnc(NCC5CC5)c4)n3)c(C(N)=O)n2)cc1 (centres unmarked) [I-229]
test.result: C (<20% degradation)
//
compound: Cc1cc(-c2nc(C(=O)Nc3cn(-c4ccc(C(=O)NCCOCCOCCNc5cccc6c5C(=O)N(C5CCC(=O)NC5=O)C6=O)cc4)nc3C(N)=O)co2)ccn1 (centres unmarked) [I-241]
test.result: A (>50% degradation)
//
compound: NC(=O)c1nn(-c2ccc(COCC3CCCCN3CCOCCNc3cccc4c3C(=O)N(C3CCC(=O)NC3=O)C4=O)cc2)cc1NC(=O)c1coc(-c2ccnc(NCC(F)(F)F)c2)n1 (centres unmarked) [I-303]
test.result: A (>50% degradation)
//
compound: O=C1CCC(N2C(=O)c3ccc(NCCOCCN4CC5(CN(CCOCCNCc6ccc(-n7cc(NC(=O)c8coc(-c9ccnc(NCC%10CC%10)c9)n8)c(C(F)F)n7)cc6)C5)C4)cc3C2=O)C(=O)N1 (centres unmarked) [I-351]
test.result: A (>50% degradation)
//
compound: NC(=O)c1nn(-c2ccc(C(=O)NCC3CCCCN3CCOCCNc3cccc4c3C(=O)N(C3CCC(=O)NC3=O)C4=O)cc2)cc1NC(=O)c1coc(-c2ccnc(NCC(F)(F)F)c2)n1 (centres unmarked) [I-219]
test.result: A (>50% degradation)
//
compound: CN(CCOCCOCCCc1ccc2c(c1)C(=O)N(C1CCC(=O)NC1=O)C2=O)C(=O)c1ccc(-n2cc(NC(=O)c3coc(-c4ccnc(NCC(F)(F)F)c4)n3)c(C(F)F)n2)cc1 (centres unmarked) [I-279]
test.result: A (>50% degradation)
//
compound: CN(CCCc1cccc2c1C(=O)N(C1CCC(=O)NC1=O)C2=O)Cc1ccc(-n2cc(NC(=O)c3coc(-c4ccnc(NCC5CC5)c4)n3)c(C(F)F)n2)cc1 (centres unmarked) [I-355]
test.result: C (<20% degradation)
//
compound: NC(=O)c1nn(-c2ccc(CNCCOCCOCCN3CCC(Nc4cccc5c4C(=O)N(C4CCC(=O)NC4=O)C5=O)CC3)cc2)cc1NC(=O)c1coc(-c2ccnc(NCC3CC3)c2)n1 (centres unmarked) [I-395]
test.result: B (>20-50% degradation)
//
compound: NC(=O)c1nn(-c2ccc(COCC3CN(CCOCCNc4cccc5c4C(=O)N(C4CCC(=O)NC4=O)C5=O)CCO3)cc2)cc1NC(=O)c1coc(-c2ccnc(NCC(F)(F)F)c2)n1 (centres unmarked) [I-302]
test.result: A (>50% degradation)
//
compound: O=C1CCC(N2C(=O)c3cccc(NCCOCCOCCNC(=O)c4ccc(-n5cc(NC(=O)c6coc(-c7ccnc(NCC8CC8)c7)n6)c(C(F)(F)F)n5)cc4)c3C2=O)C(=O)N1 (centres unmarked) [I-220]
test.result: B (>20-50% degradation)

* * *

# assay.procedure: Pharmacokinetics in CD-1 mice (plasma concentrations, PK parameters)
# Assay type: in vivo
# details: CD-1, mouse, plasma, po, 30 mg/kg, mouse (CD1) po 30 mg/kg; Mean; read-out: MRTInf_obs
endpoint: MRT inf (h)

compound: O=C1CCC(N2C(=O)c3cccc(NCCOCCOCCNCc4ccc(-n5cc(NC(=O)c6coc(-c7ccnc(NCC8CC8)c7)n6)c(C(F)F)n5)cc4)c3C2=O)C(=O)N1 (stereo not shown)
output.unit: h
test.result: 4.14

* * *

# study.system: IRAK4 (Homo sapiens)
# assay.procedure: OCI-LY-10 degradation assay (western blot, % IRAK4 degraded after 4 hours)
# Format: cell-based
# Set-up: endogenous in cells; host or cells: OCI-LY10
# details: OCI-LY10 cells, 4 hours, 0.1 uM compound
endpoint: OCI-LY10 % IRAK4 Degradation (0.1 uM)

compound: CN(CCOCCOCCCc1ccc2c(c1)C(=O)N(C1CCC(=O)NC1=O)C2=O)C(=O)c1ccc(-n2cc(NC(=O)c3coc(-c4ccnc(NCC5CC5)c4)n3)c(C(N)=O)n2)cc1 (centres unmarked)
endpoint: OCI-LY10 % IRAK4 Degradation (0.1 uM)
test.result: A (>50% degradation)
//
compound: NC(=O)c1nn(-c2ccc(C(=O)NCCOCCOCCOCCOCCCc3cccc4c3C(=O)N(C3CCC(=O)NC3=O)C4=O)cc2)cc1NC(=O)c1coc(-c2ccnc(NCC(F)(F)F)c2)n1 (centres unmarked)
endpoint: OCI-LY10 % IRAK4 Degradation (0.1 uM)
test.result: A (>50% degradation)
//
compound: NC(=O)c1nn(-c2ccc(CNCCOCCCc3cccc4c3C(=O)N(C3CCC(=O)NC3=O)C4=O)cc2)cc1NC(=O)c1coc(-c2ccnc(NCC(F)(F)F)c2)n1 (centres unmarked)
endpoint: OCI-LY10 % IRAK4 Degradation (0.1 uM)
test.result: B (>20-50% degradation)
//
compound: O=C1CCC(N2C(=O)c3ccc(CCCOCCNCc4ccc(-n5cc(NC(=O)c6coc(-c7ccnc(NCC8CC8)c7)n6)c(C(F)F)n5)cc4)cc3C2=O)C(=O)N1 (centres unmarked)
endpoint: OCI-LY10 % IRAK4 Degradation (0.1 uM)
test.result: A (>50% degradation)
//
compound: O=C1CCC(N2C(=O)c3cccc(NCCOCCN4CCO[C@@H](CNC(=O)c5ccc(-n6cc(NC(=O)c7coc(-c8ccnc(NCC(F)(F)F)c8)n7)c(C(F)F)n6)cc5)C4)c3C2=O)C(=O)N1 (some centres unmarked)
endpoint: OCI-LY10 % IRAK4 Degradation (0.1 uM)
test.result: C (<20% degradation)
//
compound: NC(=O)c1nn(-c2ccc(C(=O)NCCOCCOCCN3CCC(Nc4cccc5c4C(=O)N(C4CCC(=O)NC4=O)C5=O)CC3)cc2)cc1NC(=O)c1coc(-c2ccnc(NCC3CC3)c2)n1 (centres unmarked)
endpoint: OCI-LY10 % IRAK4 Degradation (0.1 uM)
test.result: B (>20-50% degradation)
//
compound: O=C1CCC(N2C(=O)c3ccc(CCCNC(=O)c4ccc(-n5cc(NC(=O)c6coc(-c7ccncc7)n6)c(C(F)F)n5)cc4)cc3C2=O)C(=O)N1 (centres unmarked)
endpoint: OCI-LY10 % IRAK4 Degradation (0.1 uM)
test.result: C (<20% degradation)
//
compound: O=C1CCC(N2C(=O)c3cccc(N4CCN(CCOCCOCCOCCNC(=O)c5ccc(-n6cc(NC(=O)c7coc(-c8ccnc(NCC9CC9)c8)n7)c(C(F)F)n6)cc5)CC4)c3C2=O)C(=O)N1 (centres unmarked)
endpoint: OCI-LY10 % IRAK4 Degradation (0.1 uM)
test.result: B (>20-50% degradation)
//
compound: O=C1CCC(N2C(=O)c3cccc(CCCOCCNC(=O)c4ccc(-n5cc(NC(=O)c6coc(-c7ccnc(NCC8CC8)c7)n6)c(C(F)F)n5)cc4)c3C2=O)C(=O)N1 (centres unmarked)
endpoint: OCI-LY10 % IRAK4 Degradation (0.1 uM)
test.result: C (<20% degradation)
//
compound: O=C1CCC(N2Cc3cc(N4CCN(CCOCCOCCNCc5ccc(-n6cc(NC(=O)c7coc(-c8ccnc(NCC9CC9)c8)n7)c(C(F)F)n6)cc5)CC4)ccc3C2=O)C(=O)N1 (centres unmarked)
endpoint: OCI-LY10 % IRAK4 Degradation (0.1 uM)
test.result: A (>50% degradation)
//
compound: CN(CCCCCOCCCc1cccc2c1C(=O)N(C1CCC(=O)NC1=O)C2=O)Cc1ccc(-n2cc(NC(=O)c3coc(-c4ccnc(NCC5CC5)c4)n3)c(C(N)=O)n2)cc1 (centres unmarked)
endpoint: OCI-LY10 % IRAK4 Degradation (0.1 uM)
test.result: A (>50% degradation)
